Entries annotated with measured pKi
# Tested System: Equilibrative nucleoside transporter 1 (Homo sapiens, UniProt Q99808)
# Sequence (Q99808 whole entry): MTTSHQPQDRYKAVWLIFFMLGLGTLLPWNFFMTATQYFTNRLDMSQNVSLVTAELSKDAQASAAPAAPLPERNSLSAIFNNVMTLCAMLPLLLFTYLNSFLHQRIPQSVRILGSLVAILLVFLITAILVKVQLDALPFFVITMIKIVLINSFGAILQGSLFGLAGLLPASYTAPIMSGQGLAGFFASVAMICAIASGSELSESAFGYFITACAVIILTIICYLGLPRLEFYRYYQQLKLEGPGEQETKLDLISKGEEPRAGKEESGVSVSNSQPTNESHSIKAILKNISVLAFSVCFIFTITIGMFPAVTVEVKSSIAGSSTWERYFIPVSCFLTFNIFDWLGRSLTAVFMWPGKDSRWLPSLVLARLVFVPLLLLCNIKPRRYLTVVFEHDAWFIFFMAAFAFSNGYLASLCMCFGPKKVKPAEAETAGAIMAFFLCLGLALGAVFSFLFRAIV
# Measurement Description: Displacement of SAENTA-fluorescein from human ENT1 in K562 cells after 45 mins by flow cytometry
Recall that pKi is obtained by taking minus log10 of the concentration measured in molar.

Worked cases, answers included:
O=[N+]([O-])c1ccc(CSc2nc(I)nc3c2ncn3[C@@H]2O[C@H](CO)[C@@H](O)[C@H]2O)cc1	7.96
CNc1nc(SCc2ccc([N+](=O)[O-])cc2)c2ncn([C@@H]3O[C@H](CO)[C@@H](O)[C@H]3O)c2n1	7.62
O=[N+]([O-])c1ccc(CSc2nc(F)nc3c2ncn3[C@@H]2O[C@H](CO)[C@@H](O)[C@H]2O)cc1	8.68

Turning now to a further molecule:
[ask] State the recorded pKi for this entry: `CCNc1nc(SCc2ccc([N+](=O)[O-])cc2)c2ncn([C@@H]3O[C@H](CO)[C@@H](O)[C@H]3O)c2n1`
[reply] 7.62

====

# Tested System: Equilibrative nucleoside transporter 1 (Homo sapiens, UniProt Q99808)
# Measurement Description: Displacement of SAENTA-fluorescein from human ENT1 in K562 cells after 45 mins by flow cytometry
Entries and their log10 of Ki
Hey, these are logged values: log10 of Ki, nM being the unit before logging.

These solved cases illustrate the format of a correct answer.
O=[N+]([O-])c1ccc(CSc2nc(Br)nc3c2ncn3[C@@H]2O[C@H](CO)[C@@H](O)[C@H]2O)cc1	1.04
O=[N+]([O-])c1ccc(CSc2nc(NC3CCC3)nc3c2ncn3[C@@H]2O[C@H](CO)[C@@H](O)[C@H]2O)cc1	1.52
O=[N+]([O-])c1ccc(CSc2nc(NCCO)nc3c2ncn3[C@@H]2O[C@H](CO)[C@@H](O)[C@H]2O)cc1	1.93
CN(C)c1nc(SCc2ccc([N+](=O)[O-])cc2)c2ncn([C@@H]3O[C@H](CO)[C@@H](O)[C@H]3O)c2n1	2.63
O=[N+]([O-])c1ccc(CSc2nc(Cl)nc3c2ncn3[C@@H]2O[C@H](CO)[C@@H](O)[C@H]2O)cc1	1.04

[ask] Recall the recorded log10 of Ki for `Nc1nc(SCc2ccc([N+](=O)[O-])cc2)c2ncn([C@@H]3O[C@H](CO)[C@@H](O)[C@H]3O)c2n1` with Equilibrative nucleoside transporter 1 (Homo sapiens, UniProt Q99808) and state it.
[reply] 0.04

[ask] Form: Entry = `CC(=O)Nc1nc(SCc2ccc([N+](=O)[O-])cc2)c2ncn([C@@H]3O[C@H](CO)[C@@H](O)[C@H]3O)c2n1` | System = Equilibrative nucleoside transporter 1 (Homo sapiens, UniProt Q99808) | log10 of Ki = ____
[reply] 1.53

[ask] // lookup log10 of Ki | system=Equilibrative nucleoside transporter 1 (Homo sapiens, UniProt Q99808) | key= `O=[N+]([O-])c1ccc(CSc2nc(NC3CC3)nc3c2ncn3[C@@H]2O[C@H](CO)[C@@H](O)[C@H]2O)cc1`
[reply] 1.40

[ask] Short answer please: log10 of Ki, Equilibrative nucleoside transporter 1 (Homo sapiens, UniProt Q99808), entry `CCCCNc1nc(SCc2ccc([N+](=O)[O-])cc2)c2ncn([C@@H]3O[C@H](CO)[C@@H](O)[C@H]3O)c2n1`
[reply] 2.51

[ask] State its log10 of Ki on Equilibrative nucleoside transporter 1 (Homo sapiens, UniProt Q99808): `O=[N+]([O-])c1ccc(CSc2nc(NCc3ccccc3)nc3c2ncn3[C@@H]2O[C@H](CO)[C@@H](O)[C@H]2O)cc1`
[reply] 2.39

[ask] Provide value of log10 of Ki for this record tested with Equilibrative nucleoside transporter 1 (Homo sapiens, UniProt Q99808): `O=[N+]([O-])c1ccc(CSc2nc(N(CCO)CCO)nc3c2ncn3[C@@H]2O[C@H](CO)[C@@H](O)[C@H]2O)cc1`
[reply] 2.39

[ask] Find log10 of Ki (Equilibrative nucleoside transporter 1 (Homo sapiens, UniProt Q99808)) for the entry `O=[N+]([O-])c1ccc(CSc2nc(NC3CCCC3)nc3c2ncn3[C@@H]2O[C@H](CO)[C@@H](O)[C@H]2O)cc1`
[reply] 2.10

[ask] State its log10 of Ki on Equilibrative nucleoside transporter 1 (Homo sapiens, UniProt Q99808): `O=[N+]([O-])c1ccc(CSc2nc(NC3CCCCC3)nc3c2ncn3[C@@H]2O[C@H](CO)[C@@H](O)[C@H]2O)cc1`
[reply] 2.60

[ask] What log10 of Ki appears in the records for this molecule with Equilibrative nucleoside transporter 1 (Homo sapiens, UniProt Q99808)? `O=C(Nc1nc(SCc2ccc([N+](=O)[O-])cc2)c2ncn([C@@H]3O[C@H](CO)[C@@H](O)[C@H]3O)c2n1)c1ccccc1`
[reply] 2.50

[ask] Please provide the recorded log10 of Ki for `CCCNc1nc(SCc2ccc([N+](=O)[O-])cc2)c2ncn([C@@H]3O[C@H](CO)[C@@H](O)[C@H]3O)c2n1` , tested on Equilibrative nucleoside transporter 1 (Homo sapiens, UniProt Q99808).
[reply] 2.29

[ask] Give the reported log10 of Ki for `O=[N+]([O-])c1ccc(CSc2nc(NCCc3ccccc3)nc3c2ncn3[C@@H]2O[C@H](CO)[C@@H](O)[C@H]2O)cc1` (system: Equilibrative nucleoside transporter 1 (Homo sapiens, UniProt Q99808)).
[reply] 2.60

[ask] Return log10 of Ki measured with Equilibrative nucleoside transporter 1 (Homo sapiens, UniProt Q99808) given this molecule: `CCCCCNc1nc(SCc2ccc([N+](=O)[O-])cc2)c2ncn([C@@H]3O[C@H](CO)[C@@H](O)[C@H]3O)c2n1`
[reply] 2.55
